Entry source: patent US20230110188A1

- target of assay: T1, Human MuSK (R&D Systems, cat. 10189-MK, histidine tag) (human, UniProt O15146 24-495)
- T1 construct: Bought protein; also called human monomeric MuSK-6xhis; not shown: histidine tag (6xhis)
- T1 sequence: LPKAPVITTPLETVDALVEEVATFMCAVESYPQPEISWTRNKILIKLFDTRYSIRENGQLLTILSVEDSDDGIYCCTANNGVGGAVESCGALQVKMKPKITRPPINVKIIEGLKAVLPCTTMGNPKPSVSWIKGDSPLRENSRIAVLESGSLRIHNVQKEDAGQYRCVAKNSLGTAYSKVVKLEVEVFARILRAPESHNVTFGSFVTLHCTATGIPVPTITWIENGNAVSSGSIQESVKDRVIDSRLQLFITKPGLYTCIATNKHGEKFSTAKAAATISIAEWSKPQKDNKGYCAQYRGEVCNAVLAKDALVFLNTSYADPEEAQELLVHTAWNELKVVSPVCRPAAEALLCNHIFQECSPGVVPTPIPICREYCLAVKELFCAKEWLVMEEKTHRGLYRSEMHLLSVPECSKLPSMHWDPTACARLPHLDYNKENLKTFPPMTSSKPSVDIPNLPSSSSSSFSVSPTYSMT
- assay procedure: SPR (Biacore), MuSK-coated chip, antibody alone (run of first antibody 3D9b)
measurement type: amplitude of prelead without presaturating MuSK (RU)

Query amplitude of prelead without presaturating MuSK (RU) for 3D9b (antibody, human IgG1, kappa, L234A L235A, V domains shown) VH: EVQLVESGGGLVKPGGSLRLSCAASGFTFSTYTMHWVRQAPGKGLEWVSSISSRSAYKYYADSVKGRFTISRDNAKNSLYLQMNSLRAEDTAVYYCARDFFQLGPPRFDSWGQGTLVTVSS VL: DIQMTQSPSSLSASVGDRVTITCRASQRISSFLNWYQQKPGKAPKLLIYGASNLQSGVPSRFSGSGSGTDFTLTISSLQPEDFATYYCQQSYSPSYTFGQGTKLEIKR
3970 RU
